Reference for the values: patent US6787651B2

Give measured melting point for each item. Keep answers brief.
One number for each entry, in °C.

COc1ccc(-c2c(C(=O)O)n(Cc3cccc(OCC4CC4)c3)c3ccccc23)cc1 :: 168

Now for the compound whose melting point we want.
[in] Can you share its melting point? I mean this compound: CC(=O)c1cccc(-c2c(C(=O)O)n(Cc3cccc(OCC4CC4)c3)c3ccccc23)c1
[out] 103

====

# tested-target: PPARγ ligand binding domain (LBD) (amino acids 195-475) (Homo sapiens)
# Construct: polyHis; made in house; host or cells: Escherichia coli
# Sequence (P37231 223-503, species assumed): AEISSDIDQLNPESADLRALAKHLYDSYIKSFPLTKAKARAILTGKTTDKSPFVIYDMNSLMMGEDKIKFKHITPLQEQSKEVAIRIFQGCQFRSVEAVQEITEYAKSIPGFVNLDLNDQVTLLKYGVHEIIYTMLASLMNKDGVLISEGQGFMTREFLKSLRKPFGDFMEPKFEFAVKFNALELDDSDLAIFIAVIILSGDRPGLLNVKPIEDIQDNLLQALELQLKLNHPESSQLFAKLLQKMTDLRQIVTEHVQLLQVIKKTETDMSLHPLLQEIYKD
# test-description: PPAR-γ binding assay (spin plate / gel filtration binding assay, displacement of [3H]BRL 49653)
# settings: read-out: IC50 range in the PPAR-γ Binding Assay
quantity: IC50

Here's what some known entries look like.
COc1ccc(-c2c(C(=O)O)n(Cc3cccc(OC)c3)c3c(N(C)C(=O)C4CC4)cccc23)cc1 [Example 303] :: 0.01 to 10 µM
COc1ccc(-c2c(C(=O)O)n(CC(=O)c3ccccc3)c3ccccc23)cc1 [Example 281] :: 0.01 to 10 µM
COc1cccc(Cn2c(C(=O)O)c(-c3cccc(OCC4CC4)c3)c3cc(OCCOCc4ccccc4)ccc32)c1 [Example 272] :: 0.0001 to 0.00999 µM

[in] Please look up its IC50: CN1CCCC1CCOc1ccc2cc(C(=O)O)n(Cc3cccc(C(F)(F)F)c3)c2c1 (stereo not shown) [Example 280]
[out] 0.01 to 10 µM
